# Target of assay: human orexin type 2 receptor (Homo sapiens, UniProt O43614)
# Construct: expressed in transfected cells
# Sequence (O43614 whole entry): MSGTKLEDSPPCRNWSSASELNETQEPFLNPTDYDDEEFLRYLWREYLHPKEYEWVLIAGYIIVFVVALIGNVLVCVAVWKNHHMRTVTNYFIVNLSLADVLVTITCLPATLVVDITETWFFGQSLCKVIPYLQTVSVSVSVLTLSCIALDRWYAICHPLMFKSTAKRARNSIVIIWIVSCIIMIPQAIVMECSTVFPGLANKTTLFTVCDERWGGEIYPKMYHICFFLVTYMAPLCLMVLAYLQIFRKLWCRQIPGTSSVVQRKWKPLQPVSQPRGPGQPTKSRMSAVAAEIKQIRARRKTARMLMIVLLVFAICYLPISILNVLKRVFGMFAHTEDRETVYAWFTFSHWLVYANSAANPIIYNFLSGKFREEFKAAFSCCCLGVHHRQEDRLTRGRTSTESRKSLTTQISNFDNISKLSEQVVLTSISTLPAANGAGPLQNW
# Assay info: Measurement of orexin type 2 receptor agonist activity (calcium fluorescence, Fluo-4 AM, CHO cells forcibly expressing human OX2 receptor)
# Assay type: cell-based
# Protocol conditions: test compound 3 μM, DMSO = 0%, orexin A (human) 10 nM = 100%
We begin with a simple list: items and their reported OX2R agonist activity (3 μM, %).
Provide only the numeric value, understood in %.

# Compound, Readout value
data = [
    ("Cc1nn2c(c1C)CC[C@H](NS(C)(=O)=O)[C@@H]2COC1CCN(c2ncc(F)cn2)CC1 (racemic)", 102),
]

For this compound ( CC(C)c1cc2n(n1)[C@@H](COC1CCN(c3ncccn3)CC1)[C@@H](NS(C)(=O)=O)CC2 (relative stereo) ), measured OX2R agonist activity (3 μM, %) is 100

# OX2R agonist activity (3 μM, %) of CC(C)n1cc2c(n1)[C@@H](COC1CCN(c3ncc(F)cn3)CC1)[C@@H](NS(C)(=O)=O)CC2 (racemic) = 94

// recorded OX2R agonist activity (3 μM, %) for Cc1cc2n(n1)[C@@H](COC1CCN(c3ncc(F)cn3)CC1)[C@@H](NS(C)(=O)=O)CC2 (racemic) : 98

The recorded OX2R agonist activity (3 μM, %) for entry CCc1cc2n(n1)[C@@H](COC1CCN(c3ccccn3)CC1)[C@@H](NS(C)(=O)=O)CC2 (racemic) equals 80

Reported OX2R agonist activity (3 μM, %) for CCc1cc2n(n1)[C@@H](COC1CCN(c3ncccn3)CC1)[C@@H](NS(C)(=O)=O)CC2 (relative stereo) [Example 59] was 101

Reported OX2R agonist activity (3 μM, %) ( CS(=O)(=O)NC1CCc2ncnn2C1CO[C@H]1CC[C@@H](c2ccccc2)CC1 (mixture of isomers) ) = 85

Record summary for CC(C)n1cc2c(n1)[C@@H](Cc1cccc(-c3ccccc3)c1)[C@@H](NS(C)(=O)=O)CC2 (racemic) : reported OX2R agonist activity (3 μM, %) = 84
